Hi there, I'd appreciate the recorded viability at 18 h, 5 µM for every entry that follows.
test: Cytotoxicity against C57BL/6 mouse primary BMDC assessed as cell viability at 5 uM after 18 hrs by MTT assay relative to control; format: cell-based; conditions: primary BMDC (bone marrow-derived dendritic cells), read-out: Activity
One number for each entry, in %.

Hi! Can you tell me viability at 18 h, 5 µM for each of these compounds?
1. Cn1c2ccccc2c2nc(NCCC(=O)NC3CCCCC3)n(-c3ccccc3)c(=O)c21
2. O=C(CCCSc1nc2c([nH]c3ccccc32)c(=O)n1-c1ccccc1)NC1CCCCC1
3. Cn1c2ccc(Br)cc2c2nc(SCC(=O)NC3CCCCC3)n(-c3ccccc3)c(=O)c21
4. Cn1c2ccc(-c3ccc4ccccc4c3)cc2c2nc(SCC(=O)NC3CCCCC3)n(-c3ccccc3)c(=O)c21

Out:
1: 92; 2: 70; 3: 63; 4: 84

Please state viability at 18 h, 5 µM for every compound in the list that follows.
1. Cn1c2ccc(-c3ccccc3)cc2c2nc(SCC(=O)NC3CCCCC3)n(-c3ccccc3)c(=O)c21
2. O=c1c2[nH]c3ccccc3c2nc(SCCCC2CCCCC2)n1-c1ccccc1
3. Cn1c2ccccc2c2nc(NCC(=O)NC3CCCCC3)n(-c3ccccc3)c(=O)c21
4. Cn1c2ccc(NC(=O)c3ccccc3)cc2c2nc(SCC(=O)NC3CCCCC3)n(-c3ccccc3)c(=O)c21
5. Cn1c2c(c3nc(SCC(=O)NC4CCCCC4)n(-c4ccccc4)c(=O)c31)CCCCC2

Out:
[93, 57, 113, 43, 95]
